target: UniProt P49327; assay: FAS thioesterase domain inhibitors, dose response, biochemical, endpoint fluorescence intensity, uHTS hits (AID 624327); type: functional
Active and inactive are the calls of the source.
I'd appreciate it if you could supply IC50 values for the items below.

Query: Field request: IC50 | item: CN(c1ccccc1)S(=O)(=O)c1ccc(NC(=O)c2nc(S(C)(=O)=O)ncc2Cl)cc1
Result: 5.88 µM (active)

// input: 3 compounds below; output: IC50 for each
1. O=C1C=C(c2ccc(Cl)c(C(F)(F)F)c2)C[C@@H](c2ccc3c(c2)OCO3)C1
2. O=C(COc1ncnc2cc([N+](=O)[O-])ccc12)N(CCc1ccccc1)Cc1ccccc1
3. O=C(CN1CC(c2ccccc2)CC1=O)N/N=C/c1cc(Br)ccc1O (centres undefined)

Result:
1. 5.66 µM (active)
2. 5.94 µM (active)
3. 3.61 µM (active)

###

biological target: Mu-type opioid receptor (Homo sapiens); test: Counterscreen for agonists of heterodimerization of the mu 1 (OPRM1) and delta 1 (OPRD1) opioid receptors: Luminescence-based cell-based high throughput dose response assay to identify agonists of OPRM1 homodimerization.; format: functional;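 also: U2OS cells expressing OPRM1 and beta-arrestin as split beta-galactosidase partners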
Sequence (P35372 whole entry): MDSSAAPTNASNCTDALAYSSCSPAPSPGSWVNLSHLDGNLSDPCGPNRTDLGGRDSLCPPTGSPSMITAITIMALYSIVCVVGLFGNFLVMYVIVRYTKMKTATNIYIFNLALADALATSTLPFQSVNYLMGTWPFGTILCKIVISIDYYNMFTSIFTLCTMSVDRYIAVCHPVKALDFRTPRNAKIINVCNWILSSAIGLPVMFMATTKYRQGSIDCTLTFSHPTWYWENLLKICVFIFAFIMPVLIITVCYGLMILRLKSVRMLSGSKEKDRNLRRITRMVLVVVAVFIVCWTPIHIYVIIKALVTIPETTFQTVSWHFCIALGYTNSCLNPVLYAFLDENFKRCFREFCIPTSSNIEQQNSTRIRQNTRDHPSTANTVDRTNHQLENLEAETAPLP
Calls of active or inactive are those of the source.
I'd appreciate it if you could supply EC50 values for the items below.

Reference set, count: 3
Query: # value lookup — system Mu-type opioid receptor (Homo sapiens), readout EC50, item Cc1ccc(OCC(=O)Nc2ccc(NC(=O)c3cccs3)cc2)c(C)c1;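 also: U2OS cells expressing OPRM1 and beta-arrestin as split beta-galactosidase partners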
Result: > 92.5 µM (inactive)

Query: # value lookup — system Mu-type opioid receptor (Homo sapiens), readout EC50, item Cc1ccc(C2(O)C[N+](c3ccccc3)=C3SCCN32)cc1 (centres undefined);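 also: U2OS cells expressing OPRM1 and beta-arrestin as split beta-galactosidase partners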
Result: 48.2 µM (inactive)

Query: # value lookup — system Mu-type opioid receptor (Homo sapiens), readout EC50, item Cc1cc(=O)oc2cc(NC(=O)C3COc4ccccc4O3)ccc12 (centres undefined);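 also: U2OS cells expressing OPRM1 and beta-arrestin as split beta-galactosidase partners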
Result: > 92.5 µM (inactive)

Kindly consider the entry below.
Query: # value lookup — system Mu-type opioid receptor (Homo sapiens), readout EC50, item COc1ccc(C(CNC(=O)c2cncc(Br)c2)N(C)C)cc1 (centres undefined);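 also: U2OS cells expressing OPRM1 and beta-arrestin as split beta-galactosidase partners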
Result: 18.5 µM (inactive)

###

biological target: Type-1 angiotensin II receptor (Homo sapiens); assay: AT1 receptor antagonists, dose response, selectivity assay for APJ receptor antagonist project, cell-based, uHTS hits (AID 463214); assay type: functional;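 also: antagonist potency against angiotensin II stimulated AT1 response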
Sequence (P30556 whole entry): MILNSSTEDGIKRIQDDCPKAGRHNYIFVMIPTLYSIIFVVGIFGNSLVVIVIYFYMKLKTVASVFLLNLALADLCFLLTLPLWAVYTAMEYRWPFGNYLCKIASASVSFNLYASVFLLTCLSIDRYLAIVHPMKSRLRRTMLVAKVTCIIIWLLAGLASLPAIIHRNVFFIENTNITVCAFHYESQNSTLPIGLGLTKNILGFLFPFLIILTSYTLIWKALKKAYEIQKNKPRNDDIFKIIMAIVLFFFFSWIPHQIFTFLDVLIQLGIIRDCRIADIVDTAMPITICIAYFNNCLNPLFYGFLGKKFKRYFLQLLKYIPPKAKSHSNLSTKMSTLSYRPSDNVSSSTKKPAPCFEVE
Calls of active or inactive are those of the source.
I'd appreciate it if you could supply IC50 values for the items below.

Reference set, count: 3
Query: # value lookup — system Type-1 angiotensin II receptor (Homo sapiens), readout IC50, item CCOCCO/C(O)=C1\C(C)=NC2=C(C(=O)CC(c3cccs3)C2)C1c1ccsc1 (stereo not given)
Result: > 40 µM (not active)

Query: # value lookup — system Type-1 angiotensin II receptor (Homo sapiens), readout IC50, item O=[N+]([O-])c1ccc(S(=O)(=O)c2ccccc2)nc1
Result: 13.1 µM (active)

Query: # value lookup — system Type-1 angiotensin II receptor (Homo sapiens), readout IC50, item Cc1ccccc1N=C(S)NNc1ncc(C(F)(F)F)cc1Cl
Result: 39.3 µM (not active)

// input: 2 molecules below; output: IC50 for each
1. CN(c1ccccc1)S(=O)(=O)c1ccc(NC(=O)c2nc(S(C)(=O)=O)ncc2Cl)cc1
2. COC(=O)CS(=O)(=O)c1nnc([C@H](Cc2ccccc2)NC(=O)OC(C)(C)C)o1

Result:
1. 3.14 µM (active)
2. 12.4 µM (active)

###

test system: Streptococcus sp. 'group A'; assay: growth inhibition of control SK(-) GAS strain, dose response, counter-screen for streptokinase expression inhibitor project, luminescence, kanamycin, BacTiterGlo, confirmation (AID 1900); format: functional, organism-based
Activity calls are given as the source filed them.
I'd appreciate it if you could supply EC50 values for the items below.

Query: Field request: EC50 | item: Cn1ncc(Cl)c1C(=O)N1CCC2(CC1)OCCO2
Result: > 150 µM (not active)

Query: Field request: EC50 | item: c1ccc(C(NCCNC(c2ccccc2)c2ccccc2)c2ccccc2)cc1
Result: 1.51 µM (active)

Query: Field request: EC50 | item: CCn1cnc2c1c(=O)n(CC(=O)Nc1cc(C)on1)c(=O)n2Cc1ccccc1
Result: > 150 µM (not active)

Query: Field request: EC50 | item: CC12CCC(C(=O)N(CSC(=S)N/N=C\c3ccccc3O)C1=O)C2(C)C (stereo not given)
Result: 2.43 µM (active)

Kindly consider the entry below.
Query: Field request: EC50 | item: C=CCO/C(O)=C1\C(C)=NC(SCC)=C(C#N)C1c1ccc(Cl)cc1 (stereo not given)
Result: 4.9 µM (active)

###

biological target: Fatty acid synthase (Homo sapiens, UniProt P49327); assay: FAS thioesterase domain inhibitors, dose response, biochemical, endpoint fluorescence intensity, uHTS hits (AID 624327); type: functional;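 also: fluorescence from hydrolysis of an O-methyl fluorescein acyl ester substrate by the enzyme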
Sequence (P49327 whole entry, the tested form may be a part): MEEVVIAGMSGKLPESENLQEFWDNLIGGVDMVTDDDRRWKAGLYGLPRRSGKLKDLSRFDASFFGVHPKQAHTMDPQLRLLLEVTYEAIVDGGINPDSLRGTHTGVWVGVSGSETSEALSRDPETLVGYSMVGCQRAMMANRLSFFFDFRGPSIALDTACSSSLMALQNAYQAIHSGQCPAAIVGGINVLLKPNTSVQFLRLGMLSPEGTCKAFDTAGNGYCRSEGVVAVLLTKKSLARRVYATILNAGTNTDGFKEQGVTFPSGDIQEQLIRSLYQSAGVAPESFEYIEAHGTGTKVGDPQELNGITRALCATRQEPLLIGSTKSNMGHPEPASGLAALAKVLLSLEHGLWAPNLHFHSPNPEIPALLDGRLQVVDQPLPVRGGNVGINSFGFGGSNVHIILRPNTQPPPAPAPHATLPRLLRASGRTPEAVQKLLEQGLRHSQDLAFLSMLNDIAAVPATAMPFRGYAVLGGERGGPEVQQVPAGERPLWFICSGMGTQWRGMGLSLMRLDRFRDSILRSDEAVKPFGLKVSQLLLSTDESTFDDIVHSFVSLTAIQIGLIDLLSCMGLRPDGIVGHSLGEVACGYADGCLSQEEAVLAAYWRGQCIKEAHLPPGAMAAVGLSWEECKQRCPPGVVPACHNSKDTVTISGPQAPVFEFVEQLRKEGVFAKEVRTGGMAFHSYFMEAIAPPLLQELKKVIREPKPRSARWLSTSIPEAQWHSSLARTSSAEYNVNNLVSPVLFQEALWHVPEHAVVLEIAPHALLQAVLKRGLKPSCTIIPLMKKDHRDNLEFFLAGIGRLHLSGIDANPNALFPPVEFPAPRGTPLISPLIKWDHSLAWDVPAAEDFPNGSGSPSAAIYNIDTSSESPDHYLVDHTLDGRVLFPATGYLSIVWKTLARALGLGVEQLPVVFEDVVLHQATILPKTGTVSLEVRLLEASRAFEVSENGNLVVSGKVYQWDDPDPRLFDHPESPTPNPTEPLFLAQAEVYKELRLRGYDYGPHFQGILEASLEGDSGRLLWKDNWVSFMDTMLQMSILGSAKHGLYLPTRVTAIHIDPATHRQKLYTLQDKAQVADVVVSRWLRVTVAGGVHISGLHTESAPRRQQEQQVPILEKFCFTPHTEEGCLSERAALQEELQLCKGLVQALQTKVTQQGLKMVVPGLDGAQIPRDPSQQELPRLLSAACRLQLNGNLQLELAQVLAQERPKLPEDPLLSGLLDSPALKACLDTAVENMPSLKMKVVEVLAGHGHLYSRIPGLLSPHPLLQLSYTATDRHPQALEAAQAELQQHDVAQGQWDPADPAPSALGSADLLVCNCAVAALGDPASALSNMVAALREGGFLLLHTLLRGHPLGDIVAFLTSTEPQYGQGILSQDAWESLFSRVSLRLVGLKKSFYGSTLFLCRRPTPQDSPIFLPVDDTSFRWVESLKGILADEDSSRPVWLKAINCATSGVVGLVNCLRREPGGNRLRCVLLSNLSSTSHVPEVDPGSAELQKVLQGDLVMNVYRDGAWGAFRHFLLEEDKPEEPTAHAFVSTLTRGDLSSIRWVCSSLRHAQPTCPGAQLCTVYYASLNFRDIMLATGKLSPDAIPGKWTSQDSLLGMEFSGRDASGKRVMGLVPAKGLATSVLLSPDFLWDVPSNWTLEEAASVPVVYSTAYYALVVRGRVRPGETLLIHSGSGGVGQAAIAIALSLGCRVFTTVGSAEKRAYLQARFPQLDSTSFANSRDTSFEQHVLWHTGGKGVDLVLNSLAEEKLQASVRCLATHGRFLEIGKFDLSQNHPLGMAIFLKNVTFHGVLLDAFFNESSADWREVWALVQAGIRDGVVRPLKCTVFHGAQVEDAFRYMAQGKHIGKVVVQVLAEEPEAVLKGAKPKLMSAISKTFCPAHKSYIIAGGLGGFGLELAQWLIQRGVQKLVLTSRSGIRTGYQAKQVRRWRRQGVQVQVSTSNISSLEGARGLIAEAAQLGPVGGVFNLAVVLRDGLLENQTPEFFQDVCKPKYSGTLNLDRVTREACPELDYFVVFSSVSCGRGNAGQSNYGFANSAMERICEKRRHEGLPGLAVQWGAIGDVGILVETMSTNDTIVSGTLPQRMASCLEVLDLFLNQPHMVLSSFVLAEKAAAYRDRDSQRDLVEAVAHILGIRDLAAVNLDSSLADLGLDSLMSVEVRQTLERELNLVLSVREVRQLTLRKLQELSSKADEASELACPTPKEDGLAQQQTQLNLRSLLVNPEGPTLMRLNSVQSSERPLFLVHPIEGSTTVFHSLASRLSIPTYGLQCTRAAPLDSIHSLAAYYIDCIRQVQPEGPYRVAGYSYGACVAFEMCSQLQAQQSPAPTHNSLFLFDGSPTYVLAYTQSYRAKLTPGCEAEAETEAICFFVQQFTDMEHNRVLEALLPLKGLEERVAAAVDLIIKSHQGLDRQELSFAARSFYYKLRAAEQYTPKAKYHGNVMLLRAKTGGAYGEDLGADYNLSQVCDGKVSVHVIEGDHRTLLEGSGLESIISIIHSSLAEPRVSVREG
The source made the active and inactive calls.
measuredEndpoint: IC50

Query: Field request: IC50 | item: Cc1nc2ccc([N+](=O)[O-])cc2c(=O)n1Cc1ccc(F)cc1
Result: 3.27 µM (active)

Query: Field request: IC50 | item: COc1ccc(CC(=O)N(C)Cc2ccc(C(C)(C)C)cc2)cc1S(=O)(=O)N1CCOCC1
Result: 2.25 µM (active)

Query: Field request: IC50 | item: O=C(COC(=O)c1cc([N+](=O)[O-])ccc1Cl)NC1CCCC1
Result: 0.979 µM (active)

Query: Field request: IC50 | item: O=C(O)CCN(CC(=O)c1ccc(Cl)cc1)S(=O)(=O)c1ccc([N+](=O)[O-])cc1
Result: 5.21 µM (active)

Kindly consider the entry below.
Query: Field request: IC50 | item: COc1ccc2[nH]c3c(c2c1)CCN1C(=O)C(CC(=O)NCCc2ccccn2)C[C@H](C(=O)N2CCOCC2)[C@@]31CCC1CCCC1 (stereo not given in full)
Result: 7.16 µM (active)

###

system: INS1; experiment: beta cell apoptosis inhibitors, cytokine rescue, dose response, luminescence, retest (AID 449756); type: functional, cell-based; conditions: Rattus norvegicus;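 also: cell death triggered by IL-1 beta plus TNF-alpha plus IFN-gamma mixture; protective hits raise ATP signal compared with cytokine alone wells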
Active and inactive are the calls of the source.
I'd appreciate it if you could supply AC50 values for the items below.

Reference set, count: 5
Query: Field request: AC50 | item: CCCCC(=O)NC(c1ccc(Cl)cc1Cl)c1ccc2cccnc2c1O (stereo unspecified)
Result: 0.422 µM (active)

Query: Field request: AC50 | item: Cc1cc(Nc2nc3ccccc3nc2Cl)n(-c2ccc([N+](=O)[O-])cc2)n1
Result: 8.83 µM (active)

Query: Field request: AC50 | item: Cc1sc2ncnc(NCc3cccs3)c2c1C
Result: 4.79 µM (active)

Query: Field request: AC50 | item: Oc1cc(CSc2ccc(Cl)cc2)nc(-c2ccccn2)n1
Result: 2.74 µM (active)

Query: Field request: AC50 | item: Nc1nc(N)c2cc(Sc3ccc4ccccc4c3)ccc2n1
Result: 7.99 µM (active)

Kindly consider the entry below.
Query: Field request: AC50 | item: Cc1cccc(NC(=S)N/N=C/c2ccc([N+](=O)[O-])s2)c1
Result: 3.86 µM (active)

###

biological target: Rac GTPase-activating protein 1 (Homo sapiens, UniProt Q9H0H5); experiment: MgcRacGAP GTPase-activating activity inhibitors, confirmation, biochemical, ADP Hunter fluorescence, primary and confirmatory (AID 624330); type: functional
Sequence (Q9H0H5 whole entry): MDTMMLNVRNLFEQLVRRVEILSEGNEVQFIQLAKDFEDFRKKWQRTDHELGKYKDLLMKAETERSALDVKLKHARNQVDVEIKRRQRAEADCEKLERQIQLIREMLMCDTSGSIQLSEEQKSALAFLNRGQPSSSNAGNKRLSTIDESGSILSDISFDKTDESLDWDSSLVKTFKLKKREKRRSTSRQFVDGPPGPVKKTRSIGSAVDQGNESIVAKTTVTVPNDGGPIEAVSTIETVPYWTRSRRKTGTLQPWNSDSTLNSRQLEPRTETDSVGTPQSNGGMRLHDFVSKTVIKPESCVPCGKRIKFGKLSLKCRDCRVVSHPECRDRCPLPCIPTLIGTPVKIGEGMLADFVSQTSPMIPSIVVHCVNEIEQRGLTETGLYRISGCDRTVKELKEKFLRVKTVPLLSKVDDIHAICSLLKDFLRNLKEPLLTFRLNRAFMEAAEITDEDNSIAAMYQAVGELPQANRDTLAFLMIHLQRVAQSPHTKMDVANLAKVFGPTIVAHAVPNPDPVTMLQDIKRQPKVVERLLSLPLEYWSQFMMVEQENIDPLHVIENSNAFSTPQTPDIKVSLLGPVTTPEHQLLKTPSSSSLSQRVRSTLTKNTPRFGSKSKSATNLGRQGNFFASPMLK
Active and inactive are the calls of the source.
measuredEndpoint: IC50

Reference set, count: 7
Query: Field request: IC50 | item: COc1cc(/C=C/C(=O)OCC(=O)N2CCCc3ccccc32)ccc1O
Result: 36.1 µM (active)

Query: Field request: IC50 | item: COC(=O)c1ccc(CNC(=O)COC(=O)/C=C/c2ccc(O)c(OC)c2)cc1
Result: 44.4 µM (active)

Query: Field request: IC50 | item: CC1CN(CCCCN2C(=O)c3ccccc3C2=O)CC(C)O1 (stereo not drawn)
Result: 125 µM (active)

Query: Field request: IC50 | item: CCN(CC(=O)NCc1ccc(F)cc1)C(=O)CN1CCN(c2ccc(OC)cc2)CC1
Result: 42.3 µM (active)

Query: Field request: IC50 | item: CCn1c(/C=C/c2ccc(O)cc2)nc2ccccc2c1=O
Result: 33.7 µM (active)

Query: Field request: IC50 | item: Cc1ccc(NC(=O)CCC(=O)N/N=C/c2ccc(O)cc2O)cc1
Result: 56.6 µM (active)

Query: Field request: IC50 | item: COc1ccc(-c2nc(-c3ccc(O)cc3O)cs2)cc1OC
Result: 55.1 µM (active)

Continuing:
Query: Field request: IC50 | item: Nc1ccc2c3[nH]c4cc(N)ccc4cc-3nc2c1
Result: 44.7 µM (active)

###

Observed AC50, system Cytochrome P450 2D6 (Homo sapiens).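 Also: CYP2D6 member of a cytochrome P450 panel assay.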

// input: 8 molecules below; output: AC50 for each
1. Cc1nccn1C[C@@H]1CCc2c(c3ccccc3n2C)C1=O [(S)-ONDANSETRON]
2. O=C(Nc1ccccc1)OCc1cc(-c2ccc(Cl)cc2)on1
3. Clc1ccccc1-c1nc(-c2ccncc2)no1 [PIFEXOLE]
4. CCOC(=O)Nc1ccc(C(=O)Oc2ccccc2)c(O)c1
5. CCC/C=C(\CCC)C(NP(=O)(c1ccccc1)c1ccccc1)c1ccccc1 (stereo not given)
6. O=c1c(-c2cc(F)cc(F)c2)nc2cnc(N3CCNCC3)nc2n1CCc1ccccc1
7. CCCc1n[nH]c2c1C(c1ccncc1)C(C#N)=C(N)O2 (stereo not given)
8. O=C(Cc1ccc(-n2c(=O)[nH]c3ccccc3c2=O)cc1)N1CCN(c2cccc(Cl)c2)CC1

Result:
1. 10 µM (inconclusive)
2. 3.16 µM (inconclusive)
3. 3.16 µM (inconclusive)
4. 25.1 µM (inconclusive)
5. 39.8 µM (inconclusive)
6. 20 µM (inconclusive)
7. 25.1 µM (inconclusive)
8. 14.1 µM (inconclusive)

// input: 2 molecules below; output: AC50 for each
1. c1cc(NC2CC2)nc(-c2ccoc2)n1
2. CCN(CC)CCC(=O)Nc1ccc2c(c1)N(C(=O)CN(CC)CC)c1ccccc1CC2

Result:
["39.8 µM (inconclusive)", "15.8 µM (inconclusive)"]

Data origin, for the record: ChEMBL document CHEMBL1201862
